# System under test: T1, Human recombinant CD5L protein (Sino Biological, Catalog Number 10791-H08H) (human, UniProt O43866 20-347)
# T1 construct: Bought protein; also called human CD5L; CD5L-His; not shown: 6xHIS-tag
# T1 sequence (looked up): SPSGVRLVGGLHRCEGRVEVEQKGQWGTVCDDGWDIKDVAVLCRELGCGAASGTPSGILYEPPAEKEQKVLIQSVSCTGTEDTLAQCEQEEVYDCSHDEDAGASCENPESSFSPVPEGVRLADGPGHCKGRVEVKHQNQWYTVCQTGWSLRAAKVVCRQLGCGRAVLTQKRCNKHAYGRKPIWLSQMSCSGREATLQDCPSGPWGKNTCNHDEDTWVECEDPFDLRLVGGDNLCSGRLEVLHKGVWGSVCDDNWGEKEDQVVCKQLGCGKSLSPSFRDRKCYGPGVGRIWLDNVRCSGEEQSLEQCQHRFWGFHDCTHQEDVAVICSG
# Protocol text: BLI (Octet RED96), antibody on Protein A biosensors, CD5L-His in solution, global fit
Entries and their kon
State just the number; it will be interpreted in M⁻¹ s⁻¹.

CD5L-35Hu-3 (antibody, V domains shown, also called humanized CD5L-35Hu mAb (CD5L-35Hu-H2 + CD5L-35Hu-K1)) VH: QVQLVESGGGVVQPGRSLRLSCAASGIDLSDYYMTWVRQAPGKGLEYIGIIYASGNAYFASWAKGRFTISRDNSTNTVFLQMNSLRAEDTAVYYCARNIGGSSNLWGQGTLVTVSS VL: AIQLTQSPSSLSASVGDRVTITCQASERIYNNLAWYQQKPGKAPKLLFYSASTLASGVPSRFSGSGSGTDFTLTISSLQPEDFATYYCQCTGYGTTYGLVFGGGTKVEIK; 119000
CD5L-35Hu-2 (antibody, V domains shown, also called humanized CD5L-35Hu mAb (CD5L-35Hu-H1 + CD5L-35Hu-K2)) VH: QVQLVESGGGVVQPGRSLRLSCAASGIDLSDYYMTWVRQAPGKGLEYIGIIYASGNAYFASWAKGRFTISRDSSTNTLFLQMNSLRAEDTAVYYCARNIGGSSNLWGQGTLVTVSS VL: ELQLTQTPSSLSASVGDRVTIKCQASERIYNNLAWYQQKPGKAPKLLFYSASTLASGVPSRFSGSGSGTDFTLTISSLQPEDFATYYCQCTGYGTTYGLVFGGGTKVEIK; 125000
CD5L-35Hu-4 (antibody, V domains shown, also called humanized CD5L-35Hu mAb (CD5L-35Hu-H2 + CD5L-35Hu-K2)) VH: QVQLVESGGGVVQPGRSLRLSCAASGIDLSDYYMTWVRQAPGKGLEYIGIIYASGNAYFASWAKGRFTISRDNSTNTVFLQMNSLRAEDTAVYYCARNIGGSSNLWGQGTLVTVSS VL: ELQLTQTPSSLSASVGDRVTIKCQASERIYNNLAWYQQKPGKAPKLLFYSASTLASGVPSRFSGSGSGTDFTLTISSLQPEDFATYYCQCTGYGTTYGLVFGGGTKVEIK; 106000

# evaluate next
In plain terms, CD5L-35Hu-1 (antibody, V domains shown, also called humanized CD5L-35Hu mAb (CD5L-35Hu-H1 + CD5L-35Hu-K1)) VH: QVQLVESGGGVVQPGRSLRLSCAASGIDLSDYYMTWVRQAPGKGLEYIGIIYASGNAYFASWAKGRFTISRDSSTNTLFLQMNSLRAEDTAVYYCARNIGGSSNLWGQGTLVTVSS VL: AIQLTQSPSSLSASVGDRVTITCQASERIYNNLAWYQQKPGKAPKLLFYSASTLASGVPSRFSGSGSGTDFTLTISSLQPEDFATYYCQCTGYGTTYGLVFGGGTKVEIK has a documented kon of 146000

Where do these numbers come from? They come from patent US20240383999A1.
